# Tested on: Propionibacterium granulosum
# assay.overview: Antimicrobial activity against Propionibacterium granulosum ATCC 25564 by agar dilution method in presence of 5% laked sheep blood
# Format: functional
# condition.parameters: Cutibacterium granulosum
# MIC per entry
quantity.kind: MIC (µg/mL)

C[C@@H](O)[C@H]1C(=O)N2C(C(=O)O)=C(S[C@@H]3CN[C@H](CNS(N)(=O)=O)C3)[C@H](C)[C@H]12; 0.5
C[C@@H](O)[C@H]1C(=O)N2C(C(=O)O)=C(S[C@@H]3CN[C@H](C(=O)N(C)C)C3)[C@H](C)[C@H]12; 1
C[C@@H](O)[C@H]1C(=O)N2C(C(=O)O)=C(S[C@H]3C[C@@H](C(=O)N4CC[C@H](NC(=O)CNC(=N)N)C4)N(C)C3)[C@H](C)[C@H]12; 0.5
CC(=N)N1CC[C@H](SC2=C(C(=O)O)N3C(=O)[C@H]([C@@H](C)O)[C@H]3C2)C1; 0.125
